target: full-length beta-catenin (Axin site) (Homo sapiens, UniProt P35222); construct: 15 nM full-length beta-catenin, 20 nM FITC labeled peptide in buffer; experiment: Competition fluorescence polarization assay (Axin site probe); assay type: binding; conditions: competition with FITC labeled Axin-site probe, 15 nM full-length beta-catenin; read-out: FP EC50
Sequence (P35222 whole entry): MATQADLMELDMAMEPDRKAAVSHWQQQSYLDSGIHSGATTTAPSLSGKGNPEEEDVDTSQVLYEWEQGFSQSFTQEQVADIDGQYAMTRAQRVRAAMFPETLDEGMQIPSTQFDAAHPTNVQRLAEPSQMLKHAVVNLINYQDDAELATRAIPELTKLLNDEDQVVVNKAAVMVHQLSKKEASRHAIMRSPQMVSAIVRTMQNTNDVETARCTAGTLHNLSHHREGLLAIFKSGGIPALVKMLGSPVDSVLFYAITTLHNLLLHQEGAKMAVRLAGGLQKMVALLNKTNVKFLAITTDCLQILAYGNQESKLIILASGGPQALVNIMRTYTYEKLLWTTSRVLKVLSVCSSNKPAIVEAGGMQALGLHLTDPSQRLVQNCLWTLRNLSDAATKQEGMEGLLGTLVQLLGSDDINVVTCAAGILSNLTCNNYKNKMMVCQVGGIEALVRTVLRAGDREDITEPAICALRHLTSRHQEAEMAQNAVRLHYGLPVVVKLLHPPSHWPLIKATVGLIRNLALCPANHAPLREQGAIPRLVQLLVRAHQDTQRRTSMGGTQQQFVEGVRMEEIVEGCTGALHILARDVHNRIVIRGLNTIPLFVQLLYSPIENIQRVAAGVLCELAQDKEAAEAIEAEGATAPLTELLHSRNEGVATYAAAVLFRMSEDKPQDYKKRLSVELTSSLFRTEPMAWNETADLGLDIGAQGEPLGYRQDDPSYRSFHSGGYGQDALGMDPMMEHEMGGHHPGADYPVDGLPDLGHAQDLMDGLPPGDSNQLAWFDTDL
quantity-measured: EC50

CC[C@H](C)[C@@H]1NC(=O)[C@@](C)(NC(=O)[C@H](CCC(N)=O)NC(=O)[C@@H]2CCCN2C(C)=O)CCCCCC=CCN2CC(C(=O)N[C@@H](Cc3c[nH]cn3)C(=O)N[C@H](C(=O)N[C@@H](CCCNC(=N)N)C(=O)N[C@@H](CCCNC(=N)N)C(=O)N[C@H](C(=O)N[C@@H](Cc3c[nH]c4ccccc34)C(=O)N[C@@H](CCCNC(=N)N)C(N)=O)C(C)C)C(C)C)(C2)NC(=O)[C@H](CC(=O)O)NC(=O)[C@H](CC(C)C)NC1=O (single isomer, unassigned) [FP-0738a] | 200 nM
